Answer each item with its documented Papp A→B at 90 min, 10 μM.
protocol: Transcellular transport test using Caco2 cell
Assay type: in vitro ADME
condition summary: human, Caco-2; Caco2 monolayer, A-to-B, 10 μM compound, pH 7.4, 90 minutes

Query: # return recorded Papp A→B at 90 min, 10 μM for entry O=C(O)C[C@H](NC(=O)CNC(=O)c1cc(NC2=NCC(F)CN2)c2cn[nH]c2c1)c1cc(Cl)cc(C(F)(F)F)c1 (stereo partly drawn) [Example 1-(b)]
Response: > 1 ×10⁻⁶ cm/s

Query: # return recorded Papp A→B at 90 min, 10 μM for entry O=C(O)C[C@H](NC(=O)CNC(=O)c1cc(NC2=NCC(F)CN2)c2cn[nH]c2c1)c1cccc(OC(F)(F)F)c1 (stereo partly drawn) [Example 36-(b)]
Response: > 1 ×10⁻⁶ cm/s

Query: # return recorded Papp A→B at 90 min, 10 μM for entry O=C(O)C[C@H](NC(=O)CNC(=O)c1cc(NC2=NCC(F)CN2)c2cn[nH]c2c1)c1cc(Cl)cc(OC(F)(F)F)c1 (stereo partly drawn) [Example 31-(b)]
Response: > 1 ×10⁻⁶ cm/s

Query: # return recorded Papp A→B at 90 min, 10 μM for entry O=C(O)C[C@H](NC(=O)CNC(=O)c1cc(NC2=NCC(F)CN2)c2cn[nH]c2c1)c1cc(OC(F)F)cc(-n2cccn2)c1 (stereo partly drawn) [Example 29-(b)]
Response: 0.1 to 0.5 ×10⁻⁶ cm/s

Query: # return recorded Papp A→B at 90 min, 10 μM for entry O=C(O)C[C@H](NC(=O)CNC(=O)c1cc(NC2=NCC(O)CN2)c2cn[nH]c2c1)c1cc(Cl)cc(C(F)(F)F)c1 (stereo partly drawn) [Example 50-(b)]
Response: > 1 ×10⁻⁶ cm/s

Query: # return recorded Papp A→B at 90 min, 10 μM for entry O=C(O)C[C@H](NC(=O)CNC(=O)c1cc(NC2=NCC(F)CN2)c2cn[nH]c2c1)c1cc(Cl)cc(OC(F)F)c1 (stereo partly drawn) [Example 25-(b)]
Response: > 1 ×10⁻⁶ cm/s

All values here come from patent US20230192661A1.
